Reference source for all entries: ChEMBL document CHEMBL3352178

# System tested: 5-hydroxytryptamine receptor 6 (Homo sapiens)
# Sequence (P50406 whole entry): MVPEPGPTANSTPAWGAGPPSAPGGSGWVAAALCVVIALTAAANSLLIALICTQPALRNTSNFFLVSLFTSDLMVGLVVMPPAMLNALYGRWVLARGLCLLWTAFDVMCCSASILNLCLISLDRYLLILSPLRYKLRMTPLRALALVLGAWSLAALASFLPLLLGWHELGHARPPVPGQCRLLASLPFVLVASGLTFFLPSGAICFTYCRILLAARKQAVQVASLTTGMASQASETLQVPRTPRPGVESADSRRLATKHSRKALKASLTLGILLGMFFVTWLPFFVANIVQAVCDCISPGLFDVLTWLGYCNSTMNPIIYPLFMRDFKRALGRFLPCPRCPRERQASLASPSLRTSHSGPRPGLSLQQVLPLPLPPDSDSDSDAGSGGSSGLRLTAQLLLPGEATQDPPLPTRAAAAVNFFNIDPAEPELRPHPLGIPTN
As shown below, each of these compounds has a reported pKi value.
Note on pKi: it is the negative log10 of concentration, concentration in mol/L.

Example results:
input: Item "Cn1c(=O)c2c(ncn2CCCCN2CCN(c3ccccc3)CC2)n(C)c1=O" has what recorded pKi?
output: 4.85

input: Follow-up item: "Cl.Cn1c(=O)c2c(ncn2CCCCCN2CCN(c3cccc(Cl)c3)CC2)n(C)c1=O"
output: 5.92

input: Follow-up item: "Cn1c(=O)c2c(ncn2CCCN2CCN(c3ccccc3)CC2)n(C)c1=O"
output: 4.70

input: Follow-up item: "COc1ccccc1N1CCN(CCCn2cnc3c2c(=O)n(C)c(=O)n3C)CC1"
output: 4.92

Here is another compound to look at.
input: Item "Cn1c(=O)c2c(ncn2CCCCN2CCN(c3cccc(Cl)c3Cl)CC2)n(C)c1=O" has what recorded pKi?
output: 7.17
